Values from the supplement of paper PMC11619387

Each entry below carries its recorded Hill coefficient.
- System: Pseudomonas aeruginosa PAO1-Xen41
- method.notes: Hill coefficient of concentration-effect curve (unitless); higher = steeper concentration-effect curve
- condition.description: medium (conditioned by secondary species or non-conditioned control): MH broth + LHB + NAD

molecule	Hill coefficient
NC[C@H]1O[C@H](O[C@H]2[C@H](O)[C@@H](O[C@H]3O[C@H](CO)[C@@H](O)[C@H](N)[C@H]3O)[C@H](N)C[C@@H]2N)[C@H](N)C[C@@H]1O [tobramycin]	10.7
O=C(O)c1cn(C2CC2)c2cc(N3CCNCC3)c(F)cc2c1=O [ciprofloxacin]	4.99
CC(C)(O/N=C(\C(=O)N[C@@H]1C(=O)N2C(C(=O)[O-])=C(C[n+]3ccccc3)CS[C@H]12)c1csc(N)n1)C(=O)O [ceftazidime]	5.89
CO[C@H]1/C=C/O[C@@]2(C)Oc3c(C)c(O)c4c(O)c(c(/C=N/N5CCN(C)CC5)c(O)c4c3C2=O)NC(=O)/C(C)=C\C=C\[C@H](C)[C@H](O)[C@@H](C)[C@@H](O)[C@@H](C)[C@H](OC(C)=O)[C@@H]1C [rifampicin]	3.8
CN(C)c1ccc(O)c2c1C[C@H]1C[C@H]3[C@H](N(C)C)C(O)=C(C(N)=O)C(=O)[C@@]3(O)C(O)=C1C2=O [minocycline]	1.74
C[C@H]1[C@H](NC(=O)/C(=N\OC(C)(C)C(=O)O)c2csc(N)n2)C(=O)N1S(=O)(=O)O [aztreonam]	3.43
C[C@@H](O)[C@H]1C(=O)N2C(C(=O)O)=C(S[C@@H]3CN[C@H](C(=O)N(C)C)C3)[C@H](C)[C@H]12 [meropenem]	3.73
C[C@@H]1O[C@@H]1P(=O)(O)O [fosfomycin]	1.88
CCC(C)CCCC(=O)N[C@@H](CCN)C(=O)N[C@H](C(=O)N[C@@H](CCN)C(=O)N[C@H]1CCNC(=O)[C@H]([C@@H](C)O)NC(=O)[C@H](CCN)NC(=O)[C@H](CCN)NC(=O)[C@H](CC(C)C)NC(=O)[C@@H](CC(C)C)NC(=O)[C@H](CCN)NC1=O)[C@@H](C)O (some centres undefined) [colistin]	12.4
